This collection of values is drawn from ChEMBL document CHEMBL1128248.

The reader will find reported Ki values listed item by item below.
target: D(2) dopamine receptor (Rattus norvegicus); test: Displacement of [3H]U-86170 from Dopamine receptor D2
Number in nM, nothing else.

Recorded results for 3 molecules are shown here.
{"Molecule": "CCCN(CCC)C1CCc2cccc(O)c2C1 (centres undefined)", "Experimental System": "D(2) dopamine receptor (Rattus norvegicus)", "Unit Info": "nM", "Ki": 86}
{"Molecule": "CCCN1CC[C@H]2c3c(cccc3C(C)=O)CC[C@H]21", "Experimental System": "D(2) dopamine receptor (Rattus norvegicus)", "Unit Info": "nM", "Ki": 91}
{"Molecule": "CCN1CC[C@H]2c3c(Br)cccc3CC[C@H]21", "Experimental System": "D(2) dopamine receptor (Rattus norvegicus)", "Unit Info": "nM", "Ki": 34}

Q. Find the recorded Ki belonging to `CCCC(=O)c1cccc2c1[C@@H]1CCN(CCC)[C@@H]1CC2` and report it.
A. 22

Q. Now this one: `CCCN1CC[C@H]2c3c(cccc3C(=O)C(C)C)CC[C@H]21`
A. 62

Q. Also need `COCCN1CC[C@H]2c3c(Br)cccc3CC[C@H]21` , thanks.
A. 252

----------
target: 5-hydroxytryptamine receptor 1A (Rattus norvegicus); experiment: In vitro displacement of radioactively labeled ligand [3H]8-OH-DPAT from 5-hydroxytryptamine 1A receptor site in CHO cells
Note to self: use true (1) only for Ki readings below 20 nM; a reading exactly at 20 nM still gets false (0).

Please review the entries below; each comes with its answer.
{"Chemical Structure": "C=CCCN1CC[C@H]2c3c(cccc3C(N)=O)CC[C@H]21", "Discrete Label": "false (0)"}
{"Chemical Structure": "C=CCCN1CC[C@H]2c3c(Br)cccc3CC[C@H]21", "Discrete Label": "false (0)"}
{"Chemical Structure": "NC(=O)c1cccc2c1[C@@H]1CCN(CCCCl)[C@@H]1CC2", "Discrete Label": "true (1)"}
{"Chemical Structure": "CCCNC(=O)c1cccc2c1[C@@H]1CCN(CCC)[C@@H]1CC2", "Discrete Label": "false (0)"}

Q. I wonder whether `COCCN1CC[C@H]2c3c(cccc3C(N)=O)CC[C@H]21` has Ki below 20 nM. Can you tell?
A. false (0)

Q. Next: `NC(=O)c1cccc2c1[C@@H]1CCN(CC3CC3)[C@@H]1CC2`
A. true (1)

Q. Try `CCCN1CC[C@H]2c3c(cccc3C(N)=O)CC[C@H]21` next.
A. true (1)

----------
target: D(2) dopamine receptor (Rattus norvegicus, UniProt P61169); experiment: Displacement of [3H]U-86170 from Dopamine receptor D2
Sequence (P61169 whole entry): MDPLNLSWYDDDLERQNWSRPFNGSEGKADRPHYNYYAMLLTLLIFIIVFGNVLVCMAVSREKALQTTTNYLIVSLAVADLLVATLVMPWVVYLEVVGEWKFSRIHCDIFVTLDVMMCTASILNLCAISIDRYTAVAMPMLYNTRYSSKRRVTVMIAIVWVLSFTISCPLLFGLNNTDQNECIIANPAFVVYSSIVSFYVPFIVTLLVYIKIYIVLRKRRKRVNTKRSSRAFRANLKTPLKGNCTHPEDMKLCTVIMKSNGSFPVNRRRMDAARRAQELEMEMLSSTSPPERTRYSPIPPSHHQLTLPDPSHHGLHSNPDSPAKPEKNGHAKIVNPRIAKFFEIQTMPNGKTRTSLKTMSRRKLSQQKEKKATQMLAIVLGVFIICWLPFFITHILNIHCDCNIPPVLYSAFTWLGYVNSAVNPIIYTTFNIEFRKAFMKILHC
Value Kind: Ki

Below, 2 compounds whose answers are already recorded.
{"Chemical Structure": "CCCN(CCC)C(=O)c1cccc2c1[C@@H]1CCN(CCC)[C@@H]1CC2", "Value Kind": "Ki", "Value Measured": "> 1000 nM"}
{"Chemical Structure": "NC(=O)c1cccc2c1[C@@H]1CCN(CCCCl)[C@@H]1CC2", "Value Kind": "Ki", "Value Measured": "> 1000 nM"}

Q. Query: Ki; subject: `C=CCNC(=O)c1cccc2c1[C@@H]1CCN(CCC)[C@@H]1CC2`
A. > 1000 nM

----------
Target: 5-hydroxytryptamine receptor 1A (Rattus norvegicus, UniProt P19327)
Sequence (P19327 whole entry): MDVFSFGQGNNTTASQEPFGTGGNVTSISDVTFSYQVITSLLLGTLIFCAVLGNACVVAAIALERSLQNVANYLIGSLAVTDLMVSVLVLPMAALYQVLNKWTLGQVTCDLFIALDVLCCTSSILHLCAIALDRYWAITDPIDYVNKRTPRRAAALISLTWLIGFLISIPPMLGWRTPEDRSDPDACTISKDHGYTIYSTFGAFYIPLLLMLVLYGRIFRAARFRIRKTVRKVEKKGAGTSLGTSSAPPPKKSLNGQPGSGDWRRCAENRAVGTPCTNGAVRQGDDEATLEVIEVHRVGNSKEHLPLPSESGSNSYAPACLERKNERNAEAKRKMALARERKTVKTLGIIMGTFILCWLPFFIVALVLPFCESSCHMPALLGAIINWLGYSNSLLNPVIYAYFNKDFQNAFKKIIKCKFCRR
Test: In vitro displacement of radioactively labeled ligand [3H]8-OH-DPAT from 5-hydroxytryptamine 1A receptor site in CHO cells
Each entry below lists one item and its recorded pKi value.
// field semantics: pKi = negative decimal log of concentration (mol/L)

Solved cases below.
{"Chemical Structure": "CC(C)=CCN1CC[C@H]2c3c(cccc3C(N)=O)CC[C@H]21", "Value Kind": "pKi", "Value Measured": 6.57}
{"Chemical Structure": "CC(C)CN1CC[C@H]2c3c(cccc3C(N)=O)CC[C@H]21", "Value Kind": "pKi", "Value Measured": 7.38}
{"Chemical Structure": "CCCCN1CC[C@H]2c3c(Br)cccc3CC[C@H]21", "Value Kind": "pKi", "Value Measured": 7.35}
{"Chemical Structure": "C#CCN1CC[C@H]2c3c(cccc3C(N)=O)CC[C@H]21", "Value Kind": "pKi", "Value Measured": 7.32}

Q. Record `C=CCN1CC[C@H]2c3c(cccc3C(N)=O)CC[C@H]21` : what is its pKi with 5-hydroxytryptamine receptor 1A (Rattus norvegicus, UniProt P19327)?
A. 8.82

Q. Then `COCCN1CC[C@H]2c3c(Br)cccc3CC[C@H]21` ?
A. 7.01

Q. Subsequent entry: `CCN1CC[C@H]2c3c(cccc3C(N)=O)CC[C@H]21`
A. 7.64

Q. Cool, now `CCCC(=O)c1cccc2c1[C@@H]1CCN(CCC)[C@@H]1CC2`
A. 9.15

Q. # repeat for `C=CCN1CC[C@H]2c3c(Br)cccc3CC[C@H]21`
A. 9.00

Q. Also, `CCN1CC[C@H]2c3c(Br)cccc3CC[C@H]21` please.
A. 7.96

Q. `C=CCNC(=O)c1cccc2c1[C@@H]1CCN(CCC)[C@@H]1CC2` , same question.
A. 8.66

Q. What do you get for `CCCN1CC[C@H]2c3c(cccc3C(C)=O)CC[C@H]21` ?
A. 9.40

Q. Here is the next compound: `CCCN(CCC)C(=O)c1cccc2c1[C@@H]1CCN(CCC)[C@@H]1CC2`
A. 6.36

Q. One more compound: `CN1CC[C@H]2c3c(Br)cccc3CC[C@H]21`
A. 7.62

Q. Same question, `FCCCN1CC[C@H]2c3c(Br)cccc3CC[C@H]21` this time
A. 8.33

Q. Proceed to `CCCN1CC[C@H]2c3c(cccc3C(=O)C(C)C)CC[C@H]21`
A. 8.92

Q. Now consider `Brc1cccc2c1[C@@H]1CCN(CC3CC3)[C@@H]1CC2` .
A. 8.33

Q. Continue with `ClCCCN1CC[C@H]2c3c(Br)cccc3CC[C@H]21`
A. 7.92

Q. Repeat with `CCCN1CC[C@H]2c3c(cccc3C(=O)NCc3ccccc3)CC[C@H]21`
A. 7.66
